From: patent US11420967B2

IC50 for assorted compounds
- Test System: tubulin (Sus scrofa, UniProt P02550+P02554)
- Construct: purchased Cytoskeleton Inc
- Sequence (P02554 whole entry): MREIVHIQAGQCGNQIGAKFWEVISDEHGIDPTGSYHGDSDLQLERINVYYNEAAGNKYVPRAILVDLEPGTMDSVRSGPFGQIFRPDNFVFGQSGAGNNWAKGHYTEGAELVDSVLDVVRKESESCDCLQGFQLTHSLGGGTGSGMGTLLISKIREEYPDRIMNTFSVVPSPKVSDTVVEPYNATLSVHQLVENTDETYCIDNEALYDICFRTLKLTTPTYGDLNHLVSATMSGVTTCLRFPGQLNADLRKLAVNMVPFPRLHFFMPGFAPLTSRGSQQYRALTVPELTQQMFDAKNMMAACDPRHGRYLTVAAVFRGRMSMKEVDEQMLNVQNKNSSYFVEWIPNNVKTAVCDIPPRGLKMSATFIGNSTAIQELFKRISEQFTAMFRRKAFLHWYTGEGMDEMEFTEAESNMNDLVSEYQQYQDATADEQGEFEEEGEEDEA
- Sequence (P02550 whole entry): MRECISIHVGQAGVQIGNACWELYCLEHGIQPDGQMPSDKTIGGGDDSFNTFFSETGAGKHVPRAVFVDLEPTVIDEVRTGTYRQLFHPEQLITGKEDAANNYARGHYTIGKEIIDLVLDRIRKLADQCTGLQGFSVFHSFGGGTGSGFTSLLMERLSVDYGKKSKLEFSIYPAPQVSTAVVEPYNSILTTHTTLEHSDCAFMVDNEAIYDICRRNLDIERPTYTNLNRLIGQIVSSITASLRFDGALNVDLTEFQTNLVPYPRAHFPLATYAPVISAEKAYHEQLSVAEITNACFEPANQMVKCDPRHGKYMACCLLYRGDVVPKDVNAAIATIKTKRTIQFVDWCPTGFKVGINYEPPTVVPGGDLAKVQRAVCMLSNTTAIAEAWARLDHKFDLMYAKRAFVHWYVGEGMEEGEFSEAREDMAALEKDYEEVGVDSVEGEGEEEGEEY
- Test Name: Tubulin polymerization with fluorescent tubulin (Cytoskeleton Inc.)
- Assay type: biochemical
- Assay Context: fluorescent tubulin, 100 μl
- Procedure: Real-time tubulin polymerization was measured by quantifying increase in fluorescent tubulin assembly in microtubule (RFU) as a function of time (minutes). Dose-response curves that generated results in Table 5. Tubulin assembly was measured using fluoresent-rescent tubulin in 100 μl according to manufacturer's protocol (Cytoskeleton Inc.).

| Compound | IC50, µM |
| --- | --- |
| CCn1c2ccccc2c2cc(C(O)c3cccc4ncccc34)ccc21 (single isomer, unassigned; (+)) [(+)-19] | 0.64 |
| CCn1c2ccccc2c2cc(C(O)c3cccc4ncccc34)ccc21 (single isomer, unassigned; (-)) [(−)-19] | 0.61 |
| CCn1c2ccccc2c2cc(C(O)c3cccc4ncccc34)ccc21 (racemic) [Compound 19] | 0.59 |
